Counter-ions that a name gives are not always drawn.
observed.property: melting point

Examples with their reported melting point follow.
# compound, observed.property, reported.measurement
records = [
    ("NCCc1c[nH]c2ccc3c(=O)n(CC4CCCCO4)ccc3c12 (stereo not drawn) (as salt: hydrochloride)", "melting point", "260 to 262 °C"),
    ("NCCc1c[nH]c2ccc3c(=O)n(CC4CCCCC4)ccc3c12 (as salt: hydrochloride)", "melting point", "220 to 224 °C"),
    ("O=c1[nH]ccc2c3c(ccc12)N=CC3CCNCc1ccccc1 (stereo not drawn) (as salt: HCl)", "melting point", "210 °C"),
    ("NCCc1c[nH]c2ccc3c(=O)n(Cc4ccc(F)cc4)ccc3c12 (as salt: hydrochloride)", "melting point", "247 to 249 °C"),
    ("CCn1ccc2c(ccc3[nH]cc(CCN)c32)c1=O (as salt: hydrochloride)", "melting point", "224 to 227 °C"),
    ("O=c1c2ccc3c(c(CCN(Cc4ccccc4)Cc4ccccc4)cn3Cc3ccccc3)c2ccn1Cc1ccccc1 (as salt: HCl)", "melting point", "234 to 236 °C"),
    ("O=c1[nH]ccc2c1ccc1[nH]cc(CCN(Cc3ccccc3)Cc3ccccc3)c12 (as salt: HCl)", "melting point", "250 to 253 °C"),
    ("NCCc1c[nH]c2ccc3c(=O)n(Cc4ccccc4)cnc3c12", "melting point", "302 to 305 °C"),
]

Q: State the recorded melting point for this entry: NCCc1c[nH]c2ccc3c(=O)n(Cc4ccccc4)ccc3c12 (as salt: hydrochloride)
A: 266 to 268 °C
